- studyTarget: Human plasma kallikrein (Homo sapiens, UniProt P03952)
- Construct: yields a heavy chain (371 amino acids) and a light chain (248 amino acids)
- Sequence (P03952 391-638 limits assumed): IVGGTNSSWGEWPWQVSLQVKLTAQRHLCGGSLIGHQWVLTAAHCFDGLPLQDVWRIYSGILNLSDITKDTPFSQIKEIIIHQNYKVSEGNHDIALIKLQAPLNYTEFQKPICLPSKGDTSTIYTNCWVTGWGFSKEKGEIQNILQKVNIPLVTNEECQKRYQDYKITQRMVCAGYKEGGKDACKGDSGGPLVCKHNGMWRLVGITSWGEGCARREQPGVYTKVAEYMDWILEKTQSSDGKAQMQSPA
- Sequence (P03952 20-390 partner limits assumed): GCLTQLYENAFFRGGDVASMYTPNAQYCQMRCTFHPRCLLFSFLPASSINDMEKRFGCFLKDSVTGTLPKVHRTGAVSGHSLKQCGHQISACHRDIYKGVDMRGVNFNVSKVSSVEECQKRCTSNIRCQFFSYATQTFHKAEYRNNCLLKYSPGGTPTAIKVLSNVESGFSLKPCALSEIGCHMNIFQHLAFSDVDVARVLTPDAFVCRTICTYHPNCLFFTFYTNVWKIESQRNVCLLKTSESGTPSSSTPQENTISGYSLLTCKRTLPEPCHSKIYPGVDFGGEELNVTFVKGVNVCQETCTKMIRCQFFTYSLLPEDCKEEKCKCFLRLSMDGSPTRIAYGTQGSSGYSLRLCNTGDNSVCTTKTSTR
- methodDescription: Kallikrein Assay (fluorogenic substrate hydrolysis, AFC release)
- assayContext: purified Human plasma kallikrein 0.5 nM; substrate Acetyl-K—P—R-AFC 100 mM; 50 mM HEPES pH 7.4
assayReadout: IC50 (nM)
# output: bare number, implied unit nM

Ask: Query (molecule): COc1cc(C(C)n2cc(C(=O)N[C@H]3C[C@@H](c4cc(Cl)ccc4C#N)C3)cn2)cnc1N1C[C@H]2C[C@H]2C1=O (single isomer, unassigned) [Example 14] ; field requested: IC50
Result: 2.8

Ask: Query (molecule): Cc1c(N2C[C@H]3C[C@H]3C2=O)ncc([C@@H](C)n2cc(C(=O)NC3CC(c4cc(Cl)ccc4C#N)C3)cn2)c1F (single isomer, unassigned) ; field requested: IC50
Result: 1

Ask: Query (molecule): Cc1cc(N2C[C@H]3C[C@H]3C2=O)ncc1C(C)n1cc(C(=O)N[C@H]2C[C@@H](c3cc(Cl)ccc3C(F)F)C2)nn1 (single isomer, unassigned) [Example 72] ; field requested: IC50
Result: 10000

Ask: Query (molecule): C[C@H](c1cnc(N2C[C@H]3C[C@H]3C2=O)nc1)n1cc(C(=O)N[C@H]2C[C@@H](c3cc(Cl)ccc3C#N)C2)nn1 (single isomer, unassigned) ; field requested: IC50
Result: 8.1

Ask: Query (molecule): "Cc1cc(N2C[C@H]3C[C@H]3C2=O)ncc1[C@H](C)n1cc(C(=O)N[C@H]2C[C@@H](c3cc(Cl)ccc3-n3cc(F)cn3)C2)nn1" ; field requested: IC50
Result: 5

Ask: Query (molecule): Cc1c([C@H](C)n2cc(C(=O)N[C@H]3C[C@@H](c4cc(Cl)ccc4C#N)C3)nn2)nc(N2C[C@H]3C[C@H]3C2=O)n1C (single isomer, unassigned) ; field requested: IC50
Result: 3.7

Ask: Query (molecule): COc1nc(C(C)n2cc(C(=O)N[C@H]3C[C@@H](c4cc(Cl)ccc4C#N)C3)nn2)cnc1N1C[C@H]2C[C@H]2C1=O (single isomer, unassigned) [Example 121] ; field requested: IC50
Result: 6.7

Ask: Query (molecule): Cc1c(C(C)n2cc(C(=O)N[C@H]3C[C@@H](c4cc(Cl)ccc4C#N)C3)cn2)cnc(N2C[C@H]3C[C@H]3C2=O)c1C (single isomer, unassigned) [Example 40] ; field requested: IC50
Result: 0.7

Ask: Query (molecule): Cc1c(C(C)n2cc(C(=O)NC3CC(c4cccc(Cl)c4)C3O)nn2)cnc(N2C[C@H]3C[C@H]3C2=O)c1F (single isomer, unassigned) [Example 124] ; field requested: IC50
Result: 4.5

Ask: Query (molecule): Cc1ccc(C#N)c([C@H]2C[C@@H](NC(=O)c3cn(C(C)c4cnc(N5C[C@H]6C[C@H]6C5=O)cc4C)nn3)C2)c1 (single isomer, unassigned) [Example 66] ; field requested: IC50
Result: 62.6

Ask: Query (molecule): COc1nc(C(C)n2cc(C(=O)N[C@H]3C[C@@H](c4cc(Cl)ccc4C#N)C3)nn2)cnc1N1C[C@H]2C[C@H]2C1=O (single isomer, unassigned) [Example 122] ; field requested: IC50
Result: 3
